Where these numbers come from: ChEMBL document CHEMBL1154003

Assay Explanation: Inhibition of trypsin-like activity of human 20S proteasome
Measure Name: pIC50
Please keep in mind that pIC50 is minus log10 of the molar concentration; only the number is needed.

Use these answered entries as a reference point.
Structure	pIC50
COc1ccc(C[C@H](NC(=O)Cc2cccc3ccccc23)C(=O)N[C@H](C(=O)N[C@@H](Cc2ccccc2)B(O)O)C(C)C)cc1	5.34
COc1ccc(C[C@H](NC(=O)[C@@H](NC(=O)[C@H](Cc2ccc(OC)cc2)NC(=O)Cc2cccc3ccccc23)C(C)C)B(O)O)cc1	5.25
COc1ccc(C[C@H](NC(=O)Cc2cccc3ccccc23)C(=O)N[C@H](C(=O)N[C@@H](CC(C)C)B(O)O)C(C)C)cc1	5.55
COc1ccc(C[C@H](N)C(=O)N[C@H](C(=O)N[C@@H](CC(C)C)B(O)O)C(C)C)cc1	5.72
COc1ccc(C[C@H](N)C(=O)N[C@H](C(=O)N[C@@H](Cc2ccccc2)B(O)O)C(C)C)cc1	5.40

Turning to the following compound.
INPUT: Give the measured pIC50 for `COc1ccc(C[C@H](NC(=O)[C@@H](NC(=O)[C@@H](N)Cc2ccc(OC)cc2)C(C)C)B(O)O)cc1`
OUTPUT: 5.43
